- Tested Target: human κ (CHO-KOR) opioid receptor (Homo sapiens, UniProt P41145)
- Construct: expressed in transfected cells
- Sequence (P41145 whole entry): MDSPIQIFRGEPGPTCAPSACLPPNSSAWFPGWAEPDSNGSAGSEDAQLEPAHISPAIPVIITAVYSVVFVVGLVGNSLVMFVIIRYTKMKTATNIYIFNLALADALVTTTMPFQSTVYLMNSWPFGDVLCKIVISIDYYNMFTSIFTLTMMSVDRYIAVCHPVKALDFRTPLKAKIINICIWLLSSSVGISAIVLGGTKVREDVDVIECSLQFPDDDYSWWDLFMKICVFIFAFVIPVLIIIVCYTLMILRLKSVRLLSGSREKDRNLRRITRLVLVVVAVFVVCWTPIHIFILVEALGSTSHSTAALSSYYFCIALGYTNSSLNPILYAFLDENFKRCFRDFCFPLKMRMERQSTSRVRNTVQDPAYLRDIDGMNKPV
- Experiment Notes: Stimulation of [35S]GTPγS binding, KOR
- Type: biochemical
- Stated Conditions: [35S]GTPγS maximal stimulation compared with 10 μM standard U-69,593
Assay Metric: Emax

INSERT INTO results (smiles_input, tested_target, assay_metric, test_value) VALUES
  ('Cc1cc(O)cc(C)c1C[C@H](N)C(=O)N[C@@H]1CCN2CCCc3cc(Cc4ccccc4)cc1c32', 'human κ (CHO-KOR) opioid receptor (Homo sapiens, UniProt P41145)', 'Emax', '78.4%'),
  ('Cc1cc(O)cc(C)c1C[C@H](N)C(=O)N[C@@H]1CCSc2ccc(Cc3ccccc3)cc21', 'human κ (CHO-KOR) opioid receptor (Homo sapiens, UniProt P41145)', 'Emax', '10.3%'),
  ('Cc1cc(O)cc(C)c1C[C@H](N)C(=O)N[C@@H]1C[C@@H](C)Nc2ccc(Cc3ccccc3)cc21', 'human κ (CHO-KOR) opioid receptor (Homo sapiens, UniProt P41145)', 'Emax', '28.9%'),
  ('Cc1cc(O)cc(C)c1C[C@H](N)C(=O)N[C@@H]1CCCc2ccc(-c3ccc4ccccc4c3)cc21', 'human κ (CHO-KOR) opioid receptor (Homo sapiens, UniProt P41145)', 'Emax', '5.57%'),
  ('CC(=O)N1CC[C@@H](NC(=O)[C@@H](N)Cc2c(C)cc(O)cc2C)c2cc(Oc3cccc(Cl)c3)ccc21', 'human κ (CHO-KOR) opioid receptor (Homo sapiens, UniProt P41145)', 'Emax', '55.1%'),
  ('CC(=O)N1CC[C@@H](NC(=O)[C@@H](N)Cc2c(C)cc(O)cc2C)c2cc(Cc3ccccc3)cc(C)c21', 'human κ (CHO-KOR) opioid receptor (Homo sapiens, UniProt P41145)', 'Emax', '32%'),
  ('Cc1cc(O)cc(C)c1C[C@H](N)C(=O)N[C@H]1CCNc2ccc(Cc3ccc(F)cc3)cc21', 'human κ (CHO-KOR) opioid receptor (Homo sapiens, UniProt P41145)', 'Emax', '0%'),
  ('Cc1cc(O)cc(C)c1C[C@H](N)C(=O)N[C@@H]1CCCc2ccc(-c3ccccc3)cc21', 'human κ (CHO-KOR) opioid receptor (Homo sapiens, UniProt P41145)', 'Emax', '45.6%');

====

- Tested Target: UniProtKB P33535
- Sequence (P33535 whole entry): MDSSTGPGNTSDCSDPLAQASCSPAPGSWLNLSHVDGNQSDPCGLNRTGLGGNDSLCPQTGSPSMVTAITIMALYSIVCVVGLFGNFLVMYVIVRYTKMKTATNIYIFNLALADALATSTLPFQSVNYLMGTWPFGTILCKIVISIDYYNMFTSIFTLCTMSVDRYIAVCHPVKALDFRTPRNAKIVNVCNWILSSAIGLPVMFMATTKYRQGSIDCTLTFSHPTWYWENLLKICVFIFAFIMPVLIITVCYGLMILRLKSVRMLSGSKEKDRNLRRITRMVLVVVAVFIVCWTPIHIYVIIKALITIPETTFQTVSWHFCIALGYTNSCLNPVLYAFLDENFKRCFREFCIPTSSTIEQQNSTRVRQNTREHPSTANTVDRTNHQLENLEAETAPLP
- Experiment Notes: Stimulation of [35S]GTPγS binding, MOR
- Stated Conditions: [35S]GTPγS binding, C6-MOR membranes; mean ± standard error
- Method: In Vitro Pharmacology-Cell Lines and Membrane Preparations. All tissue culture reagents were purchased from Gibco Life Sciences (Grand Island, N.Y., U.S.). […] Protein concentration was determined via Bradford assay using bovine serum albumin as the standard. Stimulation of [^35S]GTPyS Binding. […] The reaction was terminated by rapidly filtering through GF/C filters and washing 10 times with GTPyS buffer, and retained radioactivity was measured as described above. […]
Item-by-item account of EC50
Assay Metric: EC50 (nM)

INSERT INTO results (molecule, tested_target, assay_metric, test_value) VALUES
  ('Cc1cc(O)cc(C)c1C[C@H](N)C(=O)N[C@@H]1CCNc2cc(O)c(Cc3ccccc3)cc21', 'UniProtKB P33535', 'EC50', 9.86),
  ('Cc1cc(O)cc(C)c1C[C@H](N)C(=O)N[C@@H]1CCNc2c(CN3CCCCC3)cc(Cc3ccccc3)cc21', 'UniProtKB P33535', 'EC50', 2.32),
  ('Cc1cc(O)cc(C)c1C[C@H](N)C(=O)N[C@@H]1CCNc2ccc(Oc3cccc(Cl)c3)cc21', 'UniProtKB P33535', 'EC50', 10.1),
  ('Cc1cc(O)cc(C)c1C[C@H](N)C(=O)N[C@@H]1CCNc2ccc(CC3Cc4ccc(O)cc4C3)cc21 (some centres unmarked)', 'UniProtKB P33535', 'EC50', 11.9),
  ('Cc1cc(O)cc(C)c1C[C@H](N)C(=O)N[C@H]1CCN(C)c2ccc(Cc3ccccc3)cc21', 'UniProtKB P33535', 'EC50', 214),
  ('Cc1cc(O)cc(C)c1C[C@H](N)C(=O)N[C@@H]1CCNc2c1cc(Cc1ccccc1)cc2C(F)(F)F', 'UniProtKB P33535', 'EC50', 1.8),
  ('CCc1cc(Cc2ccccc2)cc2c1NCC[C@H]2NC(=O)[C@@H](N)Cc1c(C)cc(O)cc1C', 'UniProtKB P33535', 'EC50', 37),
  ('Cc1ccc2c(c1)CN(Cc1ccc3c(c1)[C@H](NC(=O)[C@@H](N)Cc1c(C)cc(O)cc1C)CCN3)CC2', 'UniProtKB P33535', 'EC50', 0.35),
  ('COc1ccccc1Oc1ccc2c(c1)[C@H](NC(=O)[C@@H](N)Cc1c(C)cc(O)cc1C)CCN2C(C)=O', 'UniProtKB P33535', 'EC50', 39.7),
  ('Cc1cc(O)cc(C)c1C[C@H](N)C(=O)N[C@H]1CCNc2ccc(Oc3ccccc3)cc21', 'UniProtKB P33535', 'EC50', 1300),
  ('Cc1cc(O)cc(C)c1C[C@H](N)C(=O)N[C@@H]1CCNc2c(Cc3ccccc3)cc(Cc3ccccc3)cc21', 'UniProtKB P33535', 'EC50', 7.25),
  ('CC(=O)N1CC[C@@H](NC(=O)[C@@H](N)Cc2c(C)cc(O)cc2C)c2cc(CC3Cc4ccccc4C3C)ccc21 (some centres unmarked)', 'UniProtKB P33535', 'EC50', 3.03),
  ('Cc1cc(O)cc(C)c1C[C@H](N)C(=O)N[C@@H]1CCNc2ccc(C(c3ccccc3)c3ccccc3)cc21', 'UniProtKB P33535', 'EC50', 12.5),
  ('Cc1cc(O)cc(C)c1C[C@H](N)C(=O)N[C@@H]1C[C@@H](C)Nc2ccc(Cc3ccccc3)cc21', 'UniProtKB P33535', 'EC50', 8.93);
